Kindly supply the reported EC50 vpac2 (Molar), cell-based cAMP assay values for the records listed here.
Biological target: T1, VPAC2 receptor (UniProt P41587 24-438, limits assumed)
T1 sequence (looked up): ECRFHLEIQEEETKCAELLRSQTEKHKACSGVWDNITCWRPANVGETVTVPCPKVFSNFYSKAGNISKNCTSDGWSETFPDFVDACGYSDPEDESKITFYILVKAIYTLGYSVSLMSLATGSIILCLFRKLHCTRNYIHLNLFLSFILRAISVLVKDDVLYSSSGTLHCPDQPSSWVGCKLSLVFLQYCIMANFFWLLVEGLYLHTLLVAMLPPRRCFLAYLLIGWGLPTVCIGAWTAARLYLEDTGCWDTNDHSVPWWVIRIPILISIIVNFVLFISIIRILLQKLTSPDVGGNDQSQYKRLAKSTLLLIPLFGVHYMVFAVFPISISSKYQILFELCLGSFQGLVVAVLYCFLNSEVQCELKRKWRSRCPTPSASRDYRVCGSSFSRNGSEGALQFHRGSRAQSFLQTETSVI
Experiment: cell-based or functional assay
Primed or numbered codes have the meaning given here. Where no end group is shown, it is not given here. [ ]: non-standard residue; d: D form. APC″ = 3-aminopyrrolidine-4-carboxylic acid (cyclic β-amino acid); ACPC″ = 2-aminocyclopentanecarboxylic acid (x in the sequences); APC = 3-aminopyrrolidine-4-carboxylic acid; ACPC = 2-aminocyclopentanecarboxylic acid; β3hN = NC(=O)C[C@H](N)CC(=O)O; β3hK = NCCCC[C@H](N)CC(=O)O; βAla = NCCC(=O)O
Just the number in nM, nothing appended.

Which EC50 vpac2 (Molar), cell-based cAMP assay is reported for this binder? Ac-HSDAVFTDNYTRLRKQ[ACPC″]AAK[APC″]YL[ACPC″]SIK[β3hN]KRY (not fully specified (C-terminus); printed as Ac-HSDAVFTDNYTRLRKQxAAKzYLxSIKnKRY) [LBT-V221] 0.0784

And the next one, Ac-H[ACPC]DA[ACPC]FTE[ACPC]YTKLRKQLAA[APC]KY[ACPC]NDL[β3hK]KG[βAla]T (not fully specified (C-terminus); printed as Ac-HxDAxFTExYTKLRKQLAAzKYxNDLkKGgT) [LBT-V209] ? 5.58
